# Test system: L1210 leukemia ip in BDF1 mice, survival T/C
# assaySummary: NCI In Vivo Anticancer Drug Screen. Data for tumor model L1210 Leukemia (intraperitoneal) in B6D2F1 (BDF1) mice
# testConditions: endpoint: mean survival time; dose: 100.0 mg/kg/injection; schedule: Q01DX009 (ip); vehicle: saline with Tween-80; higher = longer survival
Inconclusive results and toxic doses are left out.
Overview of reported T/C across a group of molecules:

{"molecule": "O=C1OC(c2ccccc2)(c2ccccc2)c2cccc3cccc1c23", "assayTarget": "L1210 leukemia ip in BDF1 mice, survival T/C", "T/C": "101 % of control"}
{"molecule": "Cc1ccc2[nH]c(=O)oc(=O)c2c1", "assayTarget": "L1210 leukemia ip in BDF1 mice, survival T/C", "T/C": "105 % of control"}
{"molecule": "CC1(C)OC2C(COC(=O)Oc3ccccc3)OC(n3cnc4c(=S)nc[nH]c43)C2O1 (configuration not stated)", "assayTarget": "L1210 leukemia ip in BDF1 mice, survival T/C", "T/C": "117 % of control"}
{"molecule": "CCN(CC)C1=C(Cl)C(=O)c2ccccc2C1=O", "assayTarget": "L1210 leukemia ip in BDF1 mice, survival T/C", "T/C": "93 % of control"}
{"molecule": "O=[N+]([O-])c1ccc(Oc2cc(Cl)c(Cl)cc2Cl)nc1", "assayTarget": "L1210 leukemia ip in BDF1 mice, survival T/C", "T/C": "101 % of control"}
{"molecule": "CCC(C(O)c1cccs1)C(O)(C(F)(F)F)C(F)(F)F (configuration not stated)", "assayTarget": "L1210 leukemia ip in BDF1 mice, survival T/C", "T/C": "95 % of control"}
{"molecule": "O=C(Nc1ccccc1)c1ccccc1C(O)(c1ccccc1)c1ccccn1 (configuration not stated)", "assayTarget": "L1210 leukemia ip in BDF1 mice, survival T/C", "T/C": "95 % of control"}
{"molecule": "O=C1OC(OC(=O)c2ccccc2)C(NC2CCCCC2)=C1Br (configuration not stated)", "assayTarget": "L1210 leukemia ip in BDF1 mice, survival T/C", "T/C": "98 % of control"}
{"molecule": "NS(=O)Oc1ccc(Nc2ncnc3nc[nH]c23)cc1 (configuration not stated)", "assayTarget": "L1210 leukemia ip in BDF1 mice, survival T/C", "T/C": "97 % of control"}
{"molecule": "O=C(Nc1cccc(O)c1)Oc1ccccc1", "assayTarget": "L1210 leukemia ip in BDF1 mice, survival T/C", "T/C": "98 % of control"}
{"molecule": "Cc1ccc(S(=O)(=O)NC(CSCc2ccccc2)C(=O)O)cc1 (configuration not stated)", "assayTarget": "L1210 leukemia ip in BDF1 mice, survival T/C", "T/C": "92 % of control"}
{"molecule": "O=c1[nH]c2cnccc2c(=O)n1O", "assayTarget": "L1210 leukemia ip in BDF1 mice, survival T/C", "T/C": "102 % of control"}

----------
# System: L1210 leukemia ip in BDF1 mice, survival T/C
# assaySummary: NCI In Vivo Anticancer Drug Screen. Data for tumor model L1210 Leukemia (intraperitoneal) in B6D2F1 (BDF1) mice
# testConditions: endpoint: mean survival time; dose: 25.0 mg/kg/injection; schedule: Q01DX001 (ip); vehicle: saline; higher = longer survival
Toxic doses and inconclusive results are not listed.
readoutKind: T/C

{"molecule": "Clc1ccccc1C[P+](c1ccccc1)(c1ccccc1)c1ccccc1", "experimentalResult": "106 % of control"}
{"molecule": "NC(=O)C1=CNCCC1", "experimentalResult": "101 % of control"}
{"molecule": "O=C(CCC(=O)[O][Sn]([c]1ccccc1)([c]1ccccc1)[c]1ccccc1)[O][Sn]([c]1ccccc1)([c]1ccccc1)[c]1ccccc1", "experimentalResult": "91 % of control"}
{"molecule": "C=C1C(=O)N(C)CCC1C(CC)C(=O)OC (centres undefined)", "experimentalResult": "101 % of control"}
